binding signal values for the binders below.
target: TDP-43 (Homo sapiens, UniProt Q13148 1-414); experiment: RNA Bind-n-Seq with designed 260-mer pool; 25 mM Tris-HCl, 150 mM KCl, 3 mM MgCl2, BSA (printed 500 mg/mL), 20 units/mL SUPERase IN; pH not stated; 500 nM RNA pool, 1 h, 4 C; TDP-43 5, 50, 500 nM; high values mean tight binding; conditions: protein: recombinant; tags: SBP (GST cleaved off with PreScission; pGEX-GST-SBP)
Sequence (Q13148 whole entry): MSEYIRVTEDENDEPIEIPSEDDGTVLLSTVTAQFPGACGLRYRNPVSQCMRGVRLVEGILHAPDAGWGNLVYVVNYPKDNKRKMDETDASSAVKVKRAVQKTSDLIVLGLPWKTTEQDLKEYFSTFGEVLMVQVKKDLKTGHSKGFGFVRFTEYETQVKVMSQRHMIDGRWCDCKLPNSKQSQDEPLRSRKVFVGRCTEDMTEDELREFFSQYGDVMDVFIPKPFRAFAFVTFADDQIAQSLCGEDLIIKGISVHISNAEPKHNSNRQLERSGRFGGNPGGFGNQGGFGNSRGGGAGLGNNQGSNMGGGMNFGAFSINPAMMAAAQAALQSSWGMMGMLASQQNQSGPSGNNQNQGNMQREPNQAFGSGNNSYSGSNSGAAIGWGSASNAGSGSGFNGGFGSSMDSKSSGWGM
Over roughly 9,900 sequences, “r (bound/input frequency ratio)” has its median near 0.7; the highest 2% begin near 6.5. The list comes from a sample in which the highest values are over-represented; it also holds close analogues and randomly drawn sequences.

Binder: ENSMUSG00000031028.651|Tub (ssRNA) RNA: GGGAGUUCUACAGUCCGACGAUCGCUUCGAUAUCCGCAUGCUAGCUGAAAUGUAGAGUGUUCUAUAGAGCAUCUCAGUAGCAUAGAAGGAGAAGCCCAGCUCCAACCUCCUGGACCCCAUACUGGUGACCAGCUUGGUGAGGACAGGCAAAAUUUCUCUAGCUGAGAGCACACUUAGCCAGUUUUCACGCCUAGAACAUAUAUGUCGAUUUGCACAUGAUUGUCUUUUCCUAUUUUGGAGUGGUCAGACAUUUUAUUUUUGUUCAAAAUUAUCUGGAGUUUUAGACAAACUUGCAAAACUGUGCUCUUGCGGUCGCACUAGUGUGGAAUUCUCGGGUGUCAAGG
binding signal: 0.18 R (bound/input frequency ratio)
//
Binder: ENSMUSG00000058297.292|Spock2|89:94 (ssRNA) RNA: GGGAGUUCUACAGUCCGACGAUCGCUUCGAUAUCCGCAUGCUAAGAGAGAAAGAGAGAGAGAAUGAGAGAGAAUGAGAGAGAGAAUACCCGAGGGCCACCCUGAUGCCCAGGAAGAGUGAGGGCAGCCCCCACACACGUGGAAGAGGCUGGGCAGCUAGCUACUGGGGACCUUGUGCUGAGGCUUCCAGGACAAAGCCCCAGUCUGGCUCUCCCCCAGCCUCUCAGGGGCACUGGCUGGUCACAUCCACUGAGUAUUGAUCGGUUGGACUUUAGGGAAGAGCCUCCUCCUUCCCAUUCCUUUCCUCUUGCGGUCGCACUAGUGUGGAAUUCUCGGGUGUCAAGG
binding signal: 5.57 R (bound/input frequency ratio)
